experiment: melting temperature; fluorescence melt of hairpins on a sequencing array, two-state fit, raised by 9.35 °C to match UV melts
assayConditions: sodium 0.088 M
readout: Tm (°C)
Reply numerically in °C, unit not repeated.

ACTTTGAAAAAAGT (((((....))))); 30.6
GTATTCGAAAGAATATAC ((((((....)))..))); 33.5

Would you mind telling me what Tm value was observed for GGGCTGGGAAACCGGCTC (.((.((....)).)).) ?
49.1

Would you mind telling me what Tm value was observed for GGAAAGCGAAAGCTTCC (((.(((....)))))) ?
53.7

Would you mind telling me what Tm value was observed for GATCCCCGAGGGATC ((((((...)))))) ?
62

Would you mind telling me what Tm value was observed for GATCTTGGATAAGATC ((((((....)))))) ?
49.4

Would you mind telling me what Tm value was observed for GGACACGAAAGTGTGTCC ((((((....)))..))) ?
55.5

====

experiment: melting temperature; fluorescence melt of hairpins on a sequencing array, two-state fit, raised by 9.35 °C to match UV melts
assayConditions: sodium 0.088 M
Overview of recorded Tm for various sequences

Reference set (4 entries):
GGTATTCGAAAGAAGACC (((.(((....))).))); 50.8 °C
GCTCTCGGAAACGAAAGC (((.(((....))).))); 39.4 °C
GTAATTGGAAACAATCAC ((.((((....)))).)); 27.4 °C
GGATTACGAAAGTACTCC (((.(((....))).))); 41.1 °C

Would you mind telling me what Tm value was observed for GATCAGTATCCTGATC ((((((....)))))) ?
48.7 °C

Would you mind telling me what Tm value was observed for GACAAACCGAAAGGTGTC (((..(((....)))))) ?
43.2 °C

Would you mind telling me what Tm value was observed for GAAGGGCGAAAGCCTTC (((.(((....)))))) ?
50.8 °C

Would you mind telling me what Tm value was observed for GATGTCCGAAAGGAATC (((.(((....)))))) ?
31.5 °C

Would you mind telling me what Tm value was observed for GCGGTTAACCGC ((((....)))) ?
66.7 °C

Would you mind telling me what Tm value was observed for GCGTTACTACGC ((((....)))) ?
54.8 °C

Would you mind telling me what Tm value was observed for GATCGTGGGGACGATC ((((((....)))))) ?
54.3 °C

Would you mind telling me what Tm value was observed for GAAGCGGGAAACCGCCTC ((.((((....)))).)) ?
36.7 °C

Would you mind telling me what Tm value was observed for GTGTTCCGAAAGGACCAC (((.(((....))).))) ?
49.7 °C

Would you mind telling me what Tm value was observed for GTGGACGGAAACGTCTAC ((.((((....)))).)) ?
52.2 °C

Would you mind telling me what Tm value was observed for GGAGCAGGAAACTGTTCC (((.(((....))).))) ?
48 °C

====

Overview of recorded folding enthalpy for various sequences
experiment: folding enthalpy; higher = less favourable; fluorescence melt of hairpins on a sequencing array, two-state fit
assayConditions: sodium 0.088 M
Reply numerically in kJ/mol, unit not repeated.

Reference set (10 entries):
GGCCCCGGAAACGAGGCC ((((.((....)).)))); -161
GTATTCGGAAACGAGTAC (((.(((....))).))); -119
GGGGAAGGAAACTCCCCC ((((.((....)).)))); -104
GATCCGGAATCGGATC ((((((....)))))); -189
GATAGCGGAAACGTTGTC ((.(.((....)).).)); -67.4
GCCGGGGGAAACCCCAGC ((.((((....)))).)); -88.5
GCAAACCGAAAGGTGTGC (((.(((....))).))); -157
GACGTCCGAAAGGAGGTC (((.(((....))).))); -129
GGAAATGGAAACGTTTCC (((((.(....).))))); -80.2
CGAACGGAAACGTCGTCG ((((((....)))..))); -76.5

Would you mind telling me what folding enthalpy value was observed for GAGTGAGGAAACTCACCC (.(((((....))))).) ?
-58

Would you mind telling me what folding enthalpy value was observed for GGGATGCCGAAAGGCCCC (((..(((....)))))) ?
-65.3

====

Overview of recorded Tm for various sequences
experiment: melting temperature; fluorescence melt of hairpins on a sequencing array, two-state fit, raised by 9.35 °C to match UV melts
assayConditions: sodium 0.088 M

Would you mind telling me what Tm value was observed for GACCGCGAAAGCGTCGTC ((((((....)))..))) ?
53.1 °C

Would you mind telling me what Tm value was observed for CGATAGCGGAAACGCTCG (((..(((....)))))) ?
41 °C

Would you mind telling me what Tm value was observed for GGCCAGGGAAACCCGGCC ((((.((....)).)))) ?
62.1 °C

Would you mind telling me what Tm value was observed for GAAAACCGAAAGGTTTC (((.(((....)))))) ?
44.2 °C

Would you mind telling me what Tm value was observed for GCGAGGCGAAAGCCAGGC ((..(((....)))..)) ?
56.4 °C

Would you mind telling me what Tm value was observed for GATCAGTTAGCTGATC ((((((....)))))) ?
53.1 °C

====

experiment: melting temperature; fluorescence melt of hairpins on a sequencing array, two-state fit, raised by 9.35 °C to match UV melts
assayConditions: sodium 0.088 M
Overview of recorded Tm for various sequences
Field: value (include unit after the number)

Reference set (5 entries):
GCGCGTTCGAAAGAACGC (((..(((....)))))); 68 °C
GATCGAATGCTCGATC ((((((....)))))); 49.9 °C
GCGGAGCGAAAGCTCTGC ((.((((....)))).)); 68 °C
GCTGGTCGAAAGACTAGC (((.(((....))).))); 57.6 °C
GCGTTAGAAATAACGC ((((((....)))))); 57.6 °C

Would you mind telling me what Tm value was observed for GTTTCTGAAAAGAAAC ((((((....)))))) ?
50.2 °C

Would you mind telling me what Tm value was observed for GCCGGGCGAAAGCCTCGC ((..(((....)))..)) ?
48.3 °C

Would you mind telling me what Tm value was observed for GTCCGGCGAAAGCCGAC (((.(((....)))))) ?
49.1 °C

====

Overview of recorded Tm for various sequences
experiment: melting temperature; fluorescence melt of hairpins on a sequencing array, two-state fit, raised by 9.35 °C to match UV melts
assayConditions: sodium 0.088 M
Reply numerically in °C, unit not repeated.

GTGCAGGGAAACCTACAC (((.(((....))).))); 41.5
GATCCTCAAAGGATC ((((((...)))))); 50.6
GCCAGCACGAAAGTGGGC (((..(((....)))))); 50.9

Would you mind telling me what Tm value was observed for GATCTCGTGCGAGATC ((((((....)))))) ?
56.3

Would you mind telling me what Tm value was observed for GTCGTGGGAAACCGTGAC (((..((....))..))) ?
36.7

Would you mind telling me what Tm value was observed for GTGTGTGAAAACACAC ((((((....)))))) ?
64.3

Would you mind telling me what Tm value was observed for GGTGACGAAAGTCGAACC ((((((....)))..))) ?
41.9

Would you mind telling me what Tm value was observed for CGGTTGCGGAAACGCCCG (((..(((....)))))) ?
46.5

Would you mind telling me what Tm value was observed for GTAGTACGAAAGTATAC (((.(((....)))))) ?
32

Would you mind telling me what Tm value was observed for TGGACGAAAGTCCA (((((....))))) ?
67.5

Would you mind telling me what Tm value was observed for GCGATAATTCGC ((((....)))) ?
48.2

Would you mind telling me what Tm value was observed for GCTGGGCGAAAGCGAAGC (((..((....))..))) ?
47.5

====

experiment: melting temperature; fluorescence melt of hairpins on a sequencing array, two-state fit, raised by 9.35 °C to match UV melts
assayConditions: sodium 0.088 M
Overview of recorded Tm for various sequences
Reply numerically in °C, unit not repeated.

Reference set (5 entries):
GAGCTCCGAAAGGATCTC (((.(((....))).))); 46.4
GTGGGCGGAAACGTCCAC ((((.((....)).)))); 64.7
GATCAGCAACTGATC ((((((...)))))); 45.6
GTATGCGAAAGCACCTAC ((((((....)))..))); 22.1
GACCCCGAAAGGGCGTC ((((((....))).))); 56.7

Would you mind telling me what Tm value was observed for GCACTACGAAAGTAATGC (((.(((....))).))) ?
43.7

Would you mind telling me what Tm value was observed for GATCACGGGGGTGATC ((((((....)))))) ?
56.8

Would you mind telling me what Tm value was observed for GAGTCACGAAAGTGCTC (((.(((....)))))) ?
48.6

Would you mind telling me what Tm value was observed for GCTTGTCGAAAGACCAGC (((.(((....))).))) ?
47.9

Would you mind telling me what Tm value was observed for GGGGAGGGAAACCTCCTC (.(((((....))))).) ?
53.4

Would you mind telling me what Tm value was observed for GTTACCGGAAACAGTAAC (((((.(....).))))) ?
32.8

Would you mind telling me what Tm value was observed for GCACTCCGAAAGGATTGC (((.(((....))).))) ?
50.6

Would you mind telling me what Tm value was observed for GTCTAGCGAAAGCTGAC (((.(((....)))))) ?
50.5

Would you mind telling me what Tm value was observed for GTCAGACGAAAGTCCGAC (((.(((....))).))) ?
48.6

Would you mind telling me what Tm value was observed for GATCTCACGTGAGATC ((((((....)))))) ?
55.1

Would you mind telling me what Tm value was observed for GGACAAACGAAAGTTTCC (((..(((....)))))) ?
25.4

Would you mind telling me what Tm value was observed for GCTGGTGGAAACGCTAGC (((.(.(....).).))) ?
41.2

Would you mind telling me what Tm value was observed for GCCCCAGGAAACCGGGAC (.(((.(....).))).) ?
31.1

Would you mind telling me what Tm value was observed for GACCAACGAAAGTTAGTC (((.(((....))).))) ?
38.8

Would you mind telling me what Tm value was observed for GTACTAGGAAACTAGCAC ((.((((....)))).)) ?
32.2

Would you mind telling me what Tm value was observed for ACCTTGAAAAAGGT (((((....))))) ?
47.3

Would you mind telling me what Tm value was observed for TCTCCGAAAGGAGA (((((....))))) ?
59.5

Would you mind telling me what Tm value was observed for GTTCGCGAAAGCGTAAAC ((((((....)))..))) ?
31.9

Would you mind telling me what Tm value was observed for GCGGTGCGAAAGCATGGC ((..(((....)))..)) ?
56.1
